Target: EGFR (Homo sapiens, UniProt P00533, DEL746-750)
Construct: host or cells: HCC827
Sequence (P00533 with tags, fused parts or gaps DEL746-750): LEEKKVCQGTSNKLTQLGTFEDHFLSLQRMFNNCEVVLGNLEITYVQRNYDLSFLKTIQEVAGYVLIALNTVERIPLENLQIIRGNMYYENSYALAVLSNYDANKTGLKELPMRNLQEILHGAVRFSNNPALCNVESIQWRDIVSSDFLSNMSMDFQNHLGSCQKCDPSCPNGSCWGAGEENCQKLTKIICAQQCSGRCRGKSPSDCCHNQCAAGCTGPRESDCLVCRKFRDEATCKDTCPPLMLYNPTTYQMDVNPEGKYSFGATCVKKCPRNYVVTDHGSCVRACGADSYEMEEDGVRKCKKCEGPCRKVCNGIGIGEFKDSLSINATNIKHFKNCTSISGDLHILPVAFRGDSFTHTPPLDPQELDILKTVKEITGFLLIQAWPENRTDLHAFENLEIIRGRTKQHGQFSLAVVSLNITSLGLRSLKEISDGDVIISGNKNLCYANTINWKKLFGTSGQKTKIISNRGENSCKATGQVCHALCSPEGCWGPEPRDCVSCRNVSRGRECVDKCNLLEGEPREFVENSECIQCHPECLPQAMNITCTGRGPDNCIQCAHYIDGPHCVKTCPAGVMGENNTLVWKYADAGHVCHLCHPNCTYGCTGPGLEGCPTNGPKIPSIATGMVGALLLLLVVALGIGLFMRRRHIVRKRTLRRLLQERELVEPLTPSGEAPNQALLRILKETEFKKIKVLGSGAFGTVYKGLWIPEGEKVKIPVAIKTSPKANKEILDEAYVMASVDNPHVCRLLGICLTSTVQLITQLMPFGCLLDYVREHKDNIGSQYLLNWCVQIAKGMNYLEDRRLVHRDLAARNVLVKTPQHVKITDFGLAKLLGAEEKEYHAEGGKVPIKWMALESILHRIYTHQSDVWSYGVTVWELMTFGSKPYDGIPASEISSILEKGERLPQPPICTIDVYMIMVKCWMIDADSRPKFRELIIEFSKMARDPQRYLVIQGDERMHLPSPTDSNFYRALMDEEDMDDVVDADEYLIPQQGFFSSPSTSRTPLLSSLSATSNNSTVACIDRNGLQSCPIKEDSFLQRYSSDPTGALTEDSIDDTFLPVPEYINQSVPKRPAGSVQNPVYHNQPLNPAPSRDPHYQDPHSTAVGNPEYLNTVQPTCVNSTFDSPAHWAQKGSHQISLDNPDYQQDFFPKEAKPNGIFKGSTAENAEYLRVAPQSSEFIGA
Assay: EGFR PROTAC In Cell Western assay in HCC827
Type: cell-based
Conditions: Table 4; HCC827, EGFR degradation, 16 hours of incubation
Method: Test Example 2 EGFR PROTAC in Cell Western Assay HCC827 cell culture medium was purchased from Corning. […] 1) HCC827 cells were cell counted and cells were inoculated into 96-well black cell culture imaging microtiter plates at a density of 40,000 cells per well, with 100 μl per well. […] After pipetting the PBS thoroughly, the plate was inverted and imaged on a Burroughs imager. […] The DC50 and Dmax of the degraded EGFR proteins were calculated by fitting curves using the Prism software, 3-parameter method.

compound: COc1cc(N2CCC(N(C)C(=O)C3CCN(CC4CCN(c5ccc6c(c5)C(=O)N(C5CCC(=O)NC5=O)C6=O)CC4)CC3)CC2)ccc1Nc1ncc(Cl)c(Nc2ccccc2C(C)=O)n1 (centres unmarked)
DC50: 100 to 1000 nM
--
compound: COc1nc(N2CCN(C(=O)CN3CCC(c4ccc(NC5CCC(=O)NC5=O)cc4)CC3)CC2)ccc1Nc1ncc(Cl)c(Nc2ccccc2P(C)(C)=O)n1 (centres unmarked)
DC50: 10 to 100 nM
--
compound: COc1cc(N2CCC(N3CCN(C(=O)CCCCN4CCN(c5ccc6c(c5)C(=O)N(C5CCC(=O)NC5=O)C6=O)CC4)CC3)CC2)ccc1Nc1ncc(Cl)c(Nc2ccccc2N(C)S(C)(=O)=O)n1 (centres unmarked) [Comparative Compound 3, reference compound]
DC50: 10 to 100 nM
--
compound: COc1cc(N2CCC(N3CCN(C(=O)CCCCN4CCC(c5ccc(NC6CCC(=O)NC6=O)cc5)CC4)CC3)CC2)ccc1Nc1ncc(Cl)c(Nc2ccccc2N(C)S(C)(=O)=O)n1 (centres unmarked)
DC50: 10 to 100 nM
--
compound: COc1cc(N2CC3CC(C2)N3C(=O)CN2CCC(c3ccc(NC4CCC(=O)NC4=O)cc3)CC2)ccc1Nc1ncc(Cl)c(Nc2ccccc2C(C)=O)n1 (centres unmarked)
DC50: 10 to 100 nM
